Target Entity: human GS3 heparanase (Homo sapiens, UniProt Q9Y251)
Sequence (Q9Y251 other isoform, or with tags, fused parts or gaps): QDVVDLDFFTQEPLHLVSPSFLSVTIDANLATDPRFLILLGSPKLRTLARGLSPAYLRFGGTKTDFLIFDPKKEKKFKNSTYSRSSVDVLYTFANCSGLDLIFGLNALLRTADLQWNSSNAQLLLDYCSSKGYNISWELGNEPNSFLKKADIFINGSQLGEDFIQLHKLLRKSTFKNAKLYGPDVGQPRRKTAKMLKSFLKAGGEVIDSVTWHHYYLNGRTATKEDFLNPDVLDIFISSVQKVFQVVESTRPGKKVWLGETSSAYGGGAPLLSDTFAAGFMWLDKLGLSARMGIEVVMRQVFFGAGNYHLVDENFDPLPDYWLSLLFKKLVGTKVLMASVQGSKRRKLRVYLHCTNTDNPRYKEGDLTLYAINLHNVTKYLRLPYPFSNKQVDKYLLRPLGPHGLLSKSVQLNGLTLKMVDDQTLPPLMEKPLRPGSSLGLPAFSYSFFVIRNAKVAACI
Method Notes: fondaparinux assay of heparanase enzymatic activity (WST-1 colorimetric)
Type: biochemical
Recorded Conditions: Table S1; fixed concentration 25 µM (25 M [sic])
Protocol: To determine the activity of the heparanase inhibitors, a homogeneous assay based on the cleavage of the synthetic heparin oligosaccharide fondaparinux (Arixtra; Aspen) was used. […] The IC50 value for each compound was calculated by GraphPad software. Finally, the measurements were corrected by subtracting both the reagent background and the inner absorbance value of test compound. […]
Measured Parameter: % inhib @25 M ± SD (%)

Past entries and their recorded results:
O=C(O)c1cccc(NC(=O)c2ccc(S(=O)(=O)c3ccc(C(=O)Nc4cccc(C(=O)O)c4)cc3)cc2)c1 [Compound 54]: 72
O=C(O)c1ccc(NC(=O)c2ccc(S(=O)(=O)c3ccc(C(=O)Nc4ccc(C(=O)O)cc4)cc3)cc2)cc1 [Compound 55]: 43
COc1cc(N=Nc2cccc(S(=O)(=O)O)c2)ccc1NC(=O)Nc1ccc(N=Nc2ccc(O)c(C(=O)O)c2)cc1 [Compound 17]: 95
O=C(O)c1cc(NC(=O)c2ccc(S(=O)(=O)c3ccc(C(=O)Nc4cc(C(=O)O)cc(C(=O)O)c4)cc3)cc2)cc(C(=O)O)c1 [Compound 52]: 54
O=C(Nc1c[nH]c(=O)[nH]c1=O)c1ccc2c(c1)C(=O)N(c1ccc(Oc3ccc(N4C(=O)c5ccc(C(=O)Nc6c[nH]c(=O)[nH]c6=O)cc5C4=O)cc3)cc1)C2=O [Compound 45]: 67

1: O=C(Nc1ccc(Oc2ccc(NC(=O)c3ccc4c(c3)C(=O)N(c3nccs3)C4=O)cc2)cc1)c1ccc2c(c1)C(=O)N(c1nccs1)C2=O [Compound 44]
2: COc1cc(C(=O)Nc2ccc(-c3nc4cc(NC(=O)c5cc(OC)c(OC)c(OC)c5)ccc4[nH]3)cc2)cc(OC)c1OC [Compound 30]
Response body: label of entry with the larger % inhib @25 M ± SD; valid values 1 , 2 . // caller expects the label of the chosen entry 1
(1: 60%, 2: 1%)

###

Target Entity: human GS3 heparanase (Homo sapiens)
Method Notes: fondaparinux assay of heparanase enzymatic activity (WST-1 colorimetric)
Assay type: biochemical
Recorded Conditions: fondaparinux assay on human GS3 heparanase; mean of triplicates; read-out: IC50 (µM) ± SD, heparanase inhibitory activity
Measured Parameter: IC50 (µM)

Past entries and their recorded results:
O=C(O)c1ccc(Oc2ccc3c(c2)C(=O)N(c2ccc(Oc4ccc(N5C(=O)c6ccc(Oc7ccc(C(=O)O)cc7)cc6C5=O)cc4)cc2)C3=O)cc1: 3.15
O=C(Nc1ccc(Br)cc1C(=O)O)c1ccc(Oc2ccc(C(=O)Nc3ccc(Br)cc3C(=O)O)cc2)cc1: 2.66
Nc1ccc2cc(S(=O)(=O)O)cc(O)c2c1N=Nc1ccc(NC(=O)Nc2ccc(N=Nc3c(N)ccc4cc(S(=O)(=O)O)cc(O)c34)c(S(=O)(=O)O)c2)cc1S(=O)(=O)O: 1.76

a: CC(C)(c1ccc(Oc2ccc3c(c2)C(=O)N(c2ccc(C(=O)O)cc2)C3=O)cc1)c1ccc(Oc2ccc3c(c2)C(=O)N(c2ccc(C(=O)O)cc2)C3=O)cc1
b: CC(C)(c1ccc(Oc2ccc3c(c2)C(=O)N(c2cccc(C(=O)O)c2)C3=O)cc1)c1ccc(Oc2ccc3c(c2)C(=O)N(c2cccc(C(=O)O)c2)C3=O)cc1
c: O=C(O)/C=C/C(=O)Nc1ccc(Sc2ccc(Oc3ccc(Sc4ccc(NC(=O)/C=C/C(=O)O)cc4)cc3)cc2)cc1
Reorder the items by IC50, least to greatest. Labels, ranked as asked. c, b, a
(c: 0.52 µM, b: 0.91 µM, a: 2.35 µM)

###

Target Entity: human GS3 heparanase (Homo sapiens)
Method Notes: fondaparinux assay of heparanase enzymatic activity (WST-1 colorimetric)
Format: biochemical
Recorded Conditions: Table S1; fixed concentration 2.5 µM (2.5 M [sic])
Measured Parameter: % inhib @2.5 M ± SD (%)

Past entries and their recorded results:
O=C(Nc1ccc2c(O)c(N=Nc3ccccc3)c(S(=O)(=O)O)cc2c1)Nc1ccc2c(O)c(N=Nc3ccccc3)c(S(=O)(=O)O)cc2c1: 12
Cc1c(NS(=O)(=O)c2cc(C(=O)Nc3ccc(-c4nc5ccccc5[nH]4)cc3)ccc2Cl)c(=O)n(-c2ccccc2)n1C: 14
O=C(O)c1cc(NC(=O)c2ccc(S(=O)(=O)c3ccc(C(=O)Nc4cc(C(=O)O)cc(C(=O)O)c4)cc3)cc2)cc(C(=O)O)c1: 45
O=C(Nc1ccc(O)cc1C(=O)O)c1ccc(Oc2ccc(C(=O)Nc3ccc(O)cc3C(=O)O)cc2)cc1: 42
O=C(Nc1ccc(-c2nc3ccccc3o2)cc1)c1ccc(Oc2ccc(C(=O)Nc3ccc(-c4nc5ccccc5o4)cc3)cc2)cc1: 60

A: COc1cc(C(=O)Nc2ccc(-c3nc4cc(NC(=O)c5cc(OC)c(OC)c(OC)c5)ccc4[nH]3)cc2)cc(OC)c1OC
B: O=C(O)c1ccc(N2C(=O)c3ccc(Oc4cccc(Oc5ccc6c(c5)C(=O)N(c5ccc(C(=O)O)cc5)C6=O)c4)cc3C2=O)cc1
Field: lower recorded % inhib @2.5 M ± SD (choose A or B ) // caller expects the label of the chosen entry A

a: COc1cc(N=Nc2cccc(S(=O)(=O)O)c2)ccc1NC(=O)Nc1ccc(N=Nc2ccc(O)c(C(=O)O)c2)cc1
b: O=C(O)c1cc(C(=O)O)cc(N2C(=O)c3ccc(C(=O)c4ccc5c(c4)C(=O)N(c4cc(C(=O)O)cc(C(=O)O)c4)C5=O)cc3C2=O)c1
Response body: label of entry with the larger % inhib @2.5 M ± SD; valid values a , b . // caller expects the label of the chosen entry b

###

Target Entity: human GS3 heparanase (Homo sapiens, UniProt Q9Y251)
Method Notes: fondaparinux assay of heparanase enzymatic activity (WST-1 colorimetric)
Assay type: biochemical
Recorded Conditions: Table S1; fixed concentration 25 µM (25 M [sic])
Measured Parameter: % inhib @25 M ± SD (%)

O=C(Nc1ccccc1Oc1ccc(C(=O)O)c(C(=O)O)c1)c1ccc(Oc2ccc(C(=O)Nc3ccccc3Oc3ccc(C(=O)O)c(C(=O)O)c3)cc2)cc1 [Compound 22]: 60
Cc1c(NS(=O)(=O)c2cc(C(=O)Nc3ccc(-c4nc5ccccc5[nH]4)cc3)ccc2Cl)c(=O)n(-c2ccccc2)n1C [Compound 28]: 59
O=C(Nc1nc(-c2ccc3ccccc3c2)cs1)c1ccc(Oc2ccc(C(=O)Nc3nc(-c4ccc5ccccc5c4)cs3)cc2)cc1 [Compound 41]: 76

###

Test system: U2OS (osteosarcoma) cells
Method Notes: proliferation assay (sulforhodamine B), U2OS
Assay type: cell-based, human
Recorded Conditions: 72 h, range 10–0.2 µM, SRB, read-out: IC50, inhibition of cell proliferation
pIC50: −log10 of the molar value.
Below, each entry is listed with its recorded pIC50.

Query for U2OS (osteosarcoma) cells: what pIC50 does the record show for O=C(Nc1ccc(-c2nc3ccccc3[nH]2)cc1)c1ccc(C(=O)Nc2ccc(-c3nc4ccccc4[nH]3)cc2)cc1 [Compound 61] ? < 5.00

Query for U2OS (osteosarcoma) cells: what pIC50 does the record show for O=C(O)c1ccc2c(c1)C(=O)N(c1ccc(NC(=O)c3cccc(C(=O)Nc4ccc(N5C(=O)c6ccc(C(=O)O)cc6C5=O)cc4Cl)c3)c(Cl)c1)C2=O [Compound 63] ? < 5.00

###

Target Entity: human GS3 heparanase (Homo sapiens, UniProt Q9Y251)
Method Notes: fondaparinux assay of heparanase enzymatic activity (WST-1 colorimetric)
Format: biochemical
Recorded Conditions: Table S1; fixed concentration 25 µM (25 M [sic])
Measured Parameter: % inhib @25 M ± SD (%)

O=C(Nc1ccc(-c2nc3ccccc3o2)cc1)c1ccc(Oc2ccc(C(=O)Nc3ccc(-c4nc5ccccc5o4)cc3)cc2)cc1: 63

A: O=C(CSc1nc2ccccc2[nH]1)Nc1ccc(-c2nc3cc(NC(=O)CSc4nc5ccccc5[nH]4)ccc3o2)cc1
B: O=C(Nc1ccc2c(O)c(N=Nc3ccccc3)c(S(=O)(=O)O)cc2c1)Nc1ccc2c(O)c(N=Nc3ccccc3)c(S(=O)(=O)O)cc2c1
C: O=C(Nc1ccccc1C(=O)O)c1ccc2c(c1)C(=O)N(c1ccc(Oc3ccc(N4C(=O)c5ccc(C(=O)Nc6ccccc6C(=O)O)cc5C4=O)cc3)cc1)C2=O
Reorder the items by % inhib @25 M ± SD, least to greatest. Labels, ranked as asked. B, A, C

###

Target Entity: human GS3 heparanase (Homo sapiens)
Method Notes: fondaparinux assay of heparanase enzymatic activity (WST-1 colorimetric)
Format: biochemical
Recorded Conditions: Table S1; fixed concentration 25 µM (25 M [sic])
Measured Parameter: % inhib @25 M ± SD (%)

O=C(Nc1cccc(C(=O)Nc2cc(C(=O)Nc3ccc(S(=O)(=O)O)c4cc(S(=O)(=O)O)cc(S(=O)(=O)O)c34)ccc2F)c1)Nc1cccc(C(=O)Nc2cc(C(=O)Nc3ccc(S(=O)(=O)O)c4cc(S(=O)(=O)O)cc(S(=O)(=O)O)c34)ccc2F)c1: 100

a: O=C(O)c1cc(C(=O)O)cc(N2C(=O)c3ccc(C(=O)c4ccc5c(c4)C(=O)N(c4cc(C(=O)O)cc(C(=O)O)c4)C5=O)cc3C2=O)c1
b: O=C(O)c1ccc(N2C(=O)c3ccc(Oc4cccc(Oc5ccc6c(c5)C(=O)N(c5ccc(C(=O)O)cc5)C6=O)c4)cc3C2=O)cc1
Response body: label of entry with the larger % inhib @25 M ± SD; valid values a , b . // caller expects the label of the chosen entry a

Cited source: paper PMC7534336
